Tested on: Listeria monocytogenes 33068
Assay: Deferred antagonism assay
Assay type: cell-based
Design: key: −, no inhibition; (+), clear zone directly above the colony; +, 1-5 mm zone; ++, 6-10 mm zone; +++, <10 mm zone
Conditions: nisin strain; L. monocytogenes 33068
Ends that are not written are not given here.
recorded_metric: Activity score (zone)

[[record]]
substance = "NisinA M21I (ITSISLCTPGCKTGALMGCNIKTATCHCSIHVSK; not fully specified; also: lantibiotic: lanthionine rings and dehydro residues not placed; UniProt P13068 24-57, looked up, variant M21I) [nisin A derivative, hinge substitution M21I]"
measured_value = "−"

[[record]]
substance = "NisinA K22A (ITSISLCTPGCKTGALMGCNMATATCHCSIHVSK; not fully specified; also: lantibiotic: lanthionine rings and dehydro residues not placed; UniProt P13068 24-57, looked up, variant K22A) [nisin A derivative, hinge substitution K22A]"
measured_value = "−"

[[record]]
substance = "NisinA M21G (ITSISLCTPGCKTGALMGCNGKTATCHCSIHVSK; not fully specified; also: lantibiotic: lanthionine rings and dehydro residues not placed; UniProt P13068 24-57, looked up, variant M21G) [nisin A derivative, hinge substitution M21G]"
measured_value = "−"

